ASSAYED_TARGET: androgen receptor (AR) (Homo sapiens, UniProt P10275, T878A)
Construct: LNCaP cells express endogenous AR; endogenous in cells
Sequence (P10275 whole entry T878A): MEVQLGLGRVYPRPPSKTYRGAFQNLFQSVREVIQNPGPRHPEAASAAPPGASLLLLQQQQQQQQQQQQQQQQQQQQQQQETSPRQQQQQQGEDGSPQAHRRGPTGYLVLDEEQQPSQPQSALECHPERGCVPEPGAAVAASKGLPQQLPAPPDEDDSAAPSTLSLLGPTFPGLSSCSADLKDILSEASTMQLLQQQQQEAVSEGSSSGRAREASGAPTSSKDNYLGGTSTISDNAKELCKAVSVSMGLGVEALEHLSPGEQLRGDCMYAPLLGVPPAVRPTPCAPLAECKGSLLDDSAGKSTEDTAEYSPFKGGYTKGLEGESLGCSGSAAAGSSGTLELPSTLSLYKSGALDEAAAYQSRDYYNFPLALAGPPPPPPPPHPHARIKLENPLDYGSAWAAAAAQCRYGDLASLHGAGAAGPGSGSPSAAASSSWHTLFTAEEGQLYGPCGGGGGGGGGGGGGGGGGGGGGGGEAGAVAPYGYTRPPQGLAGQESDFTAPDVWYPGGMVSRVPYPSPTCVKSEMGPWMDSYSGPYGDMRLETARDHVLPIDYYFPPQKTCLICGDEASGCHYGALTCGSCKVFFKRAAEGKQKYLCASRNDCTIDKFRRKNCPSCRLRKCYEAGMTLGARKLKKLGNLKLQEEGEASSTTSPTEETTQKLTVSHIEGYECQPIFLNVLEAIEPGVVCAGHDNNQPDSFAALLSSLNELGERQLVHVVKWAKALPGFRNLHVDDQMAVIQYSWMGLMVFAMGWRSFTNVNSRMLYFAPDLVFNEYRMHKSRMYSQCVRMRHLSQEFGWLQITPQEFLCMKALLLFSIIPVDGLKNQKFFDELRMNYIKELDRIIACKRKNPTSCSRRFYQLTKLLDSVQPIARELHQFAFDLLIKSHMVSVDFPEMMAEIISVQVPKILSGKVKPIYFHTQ
PROTOCOL: PSA (6.1 kb)-luciferase reporter assay in LNCaP cells induced with R1881
CONDITIONS: LNCaP cells transfected with PSA (6.1 kb)-luciferase; 1 h pre-treatment, R1881 1 nM, 48 h; relative luciferase activity
EXPERIMENTAL_READOUT: pIC50
In simple prose, pIC50 is minus the logarithm base ten of a concentration in moles per litre.

Prompt: Identify the measured pIC50 of CC(C)OCC(O)COc1ccc(C(C)(C)c2ccc(OCC(O)CCl)cc2)cc1 (centres unmarked) [Compound 32] for androgen receptor (AR) (Homo sapiens, UniProt P10275, T878A).
Completion: 5.35

Prompt: Identify the measured pIC50 of C#CCOC[C@@H](O)COc1ccc(C(C)(C)c2ccc(OC[C@@H](O)CCl)cc2)cc1 [Compound 18] for androgen receptor (AR) (Homo sapiens, UniProt P10275, T878A).
Completion: 5.89

Prompt: Identify the measured pIC50 of C#CCOCC(O)COc1ccc(C(C)(C)c2ccc(OCC(O)CCl)cc2)cc1 (centres unmarked) [Compound 3] for androgen receptor (AR) (Homo sapiens, UniProt P10275, T878A).
Completion: 5.80

Prompt: Identify the measured pIC50 of COCC(O)COc1ccc(C(C)(C)c2ccc(OCC(O)CCl)cc2)cc1 (centres unmarked) [Compound 30] for androgen receptor (AR) (Homo sapiens, UniProt P10275, T878A).
Completion: 4.94

Prompt: Identify the measured pIC50 of C#CCOCC(O)COc1ccc(C(C)(C)c2ccc(OCC(O)CO)cc2)cc1 (centres unmarked) [Compound 5] for androgen receptor (AR) (Homo sapiens, UniProt P10275, T878A).
Completion: 5.35

Prompt: Identify the measured pIC50 of CC(C)OCC(O)COc1ccc(C(C)(C)c2ccc(OCC(O)COC(C)C)cc2)cc1 (centres unmarked) [Compound 31] for androgen receptor (AR) (Homo sapiens, UniProt P10275, T878A).
Completion: 5.35

Prompt: Identify the measured pIC50 of CCCCOCC(O)COc1ccc(C(C)(C)c2ccc(OCC(O)COCCCC)cc2)cc1 (centres unmarked) [Compound 33] for androgen receptor (AR) (Homo sapiens, UniProt P10275, T878A).
Completion: 6.15

Prompt: Identify the measured pIC50 of C#CCOC[C@H](O)COc1ccc(C(C)(C)c2ccc(OC[C@@H](O)CCl)cc2)cc1 [Compound 10] for androgen receptor (AR) (Homo sapiens, UniProt P10275, T878A).
Completion: 5.66

Prompt: Identify the measured pIC50 of C#CCOC[C@@H](O)COc1ccc(C(C)(C)c2ccc(OC[C@H](O)CCl)cc2)cc1 [Compound 16] for androgen receptor (AR) (Homo sapiens, UniProt P10275, T878A).
Completion: 5.16

Prompt: Identify the measured pIC50 of C#CCOC[C@H](O)COc1ccc(C(C)(C)c2ccc(OC[C@H](O)CCl)cc2)cc1 [Compound 12] for androgen receptor (AR) (Homo sapiens, UniProt P10275, T878A).
Completion: 5.66

Prompt: Identify the measured pIC50 of CCCCOCC(O)COc1ccc(C(C)(C)c2ccc(OCC(O)CCl)cc2)cc1 (centres unmarked) [Compound 34] for androgen receptor (AR) (Homo sapiens, UniProt P10275, T878A).
Completion: 5.76

Numbers sourced from patent US20140248263A1.
